- assay text: Cmax in Sprague-Dawley rat at 10 mg/kg, po and 3 mg/kg, iv
- Assay type: ADME, organism-based
- conditions used: in vivo
# Cmax listing for each entry below
Write the quantity with the unit trailing the number.

Guide cases for Cmax, answers given:
CS(=O)(=O)N1CC2(CCN(C(=O)Nc3ccc(-c4ccncc4)cc3)CC2)c2ccccc21: 5.5 µM
CS(=O)(=O)N1CC2(CCN(C(=O)Nc3ccc(-c4ccccn4)cc3)CC2)c2ccccc21: 0.6 µM

Kindly review the next compound as well.
[in] Which Cmax is reported for this compound? `CS(=O)(=O)N1CC2(CCN(C(=O)Nc3ccc(-c4cccnc4)cc3)CC2)c2ccccc21`
[out] 4.7 µM

====

- assay text: Total clearance in Sprague-Dawley rat at 10 mg/kg, po and 3 mg/kg, iv
- Assay type: ADME, organism-based
- conditions used: in vivo
Recorded clearance values for a group of compounds are listed next.
Provide the reading as a plain figure in mL/min/kg.

Some compounds with known clearance results, for comparison:
CS(=O)(=O)N1CC2(CCN(C(=O)Nc3ccc(-c4ccncc4)cc3)CC2)c2ccccc21: 17.8
CS(=O)(=O)N1CC2(CCN(C(=O)Nc3cn(-c4ccccc4)cn3)CC2)c2ccccc21: 3.9

[in] Please look up its clearance: `CS(=O)(=O)N1CC2(CCN(C(=O)Nc3ccc(-c4cccnc4)cc3)CC2)c2ccccc21`
[out] 13.3

[in] Quick one: `CS(=O)(=O)N1CC2(CCN(C(=O)Nc3ccc(-c4ccccn4)cc3)CC2)c2ccccc21`
[out] 24.4

[in] Please answer likewise for `CCS(=O)(=O)N1CC2(CCN(C(=O)Nc3cn(-c4ccccc4)cn3)CC2)c2ccccc21`
[out] 2.5

====

- assay text: AUC in Sprague-Dawley rat at 10 mg/kg, po and 3 mg/kg, iv
- Type: ADME, organism-based
- conditions used: plasma
Threshold check on AUC: strictly below 30 µM·h is Fulfilled; on or above 30 µM·h is Not fulfilled.

Worked set:
CS(=O)(=O)N1CC2(CCN(C(=O)Nc3ccc(-c4cccnc4)cc3)CC2)c2ccccc21: Fulfilled
CCS(=O)(=O)N1CC2(CCN(C(=O)Nc3cn(-c4ccccc4)cn3)CC2)c2ccccc21: Not fulfilled
CS(=O)(=O)N1CC2(CCN(C(=O)Nc3ccc(-c4ccncc4)cc3)CC2)c2ccccc21: Fulfilled
CS(=O)(=O)N1CC2(CCN(C(=O)Nc3cn(-c4ccccc4)cn3)CC2)c2ccccc21: Fulfilled

[in] Here's an entry: `CS(=O)(=O)N1CC2(CCN(C(=O)Nc3ccc(-c4ccccn4)cc3)CC2)c2ccccc21` . Is its AUC below 30 µM·h?
[out] Fulfilled

====

- assay text: Lipophilicity, calculated log D at pH 7.4
quantity kind: logD

Example cases with answers are listed next.
CS(=O)(=O)N1CC2(CCN(C(=O)Nc3ccc4ncccc4c3)CC2)c2ccccc21: 2.74
CS(=O)(=O)N1CC2(CCN(C(=O)Nc3cc(-c4ccccc4)no3)CC2)c2ccccc21: 2.53
CS(=O)(=O)N1CC2(CCN(C(=O)Nc3cc(-c4ccccc4)n[nH]3)CC2)c2ccccc21: 3.08

Consider the additional compound presented here.
[in] Quick one: logD of `CS(=O)(=O)N1CC2(CCN(C(=O)Nc3cn(-c4ccccc4)cn3)CC2)c2ccccc21` ?
[out] 2.15

====

// each record: one item and its IC50 for Neuropeptide Y receptor type 5 (Homo sapiens, UniProt Q15761)
Your answer should be a number followed by the unit of measure.

Examples with their reported IC50 follow.
CS(=O)(=O)N1CC2(CCN(C(=O)Nc3cc(-c4ccccc4)n[nH]3)CC2)c2ccccc21: 1.4 nM
CC(=O)c1ccc(NC(=O)N2CCC3(CC2)CN(S(C)(=O)=O)c2ccccc23)cc1: 2.7 nM
CCS(=O)(=O)N1CC2(CCN(C(=O)Nc3cn(-c4ccccc4)cn3)CC2)c2ccccc21: 3.4 nM
Cn1ccnc1-c1ccc(NC(=O)N2CCC3(CC2)CN(S(C)(=O)=O)c2ccccc23)cc1: 9 nM
CS(=O)(=O)N1CC2(CCN(C(=O)Nc3cc(-c4ccccc4)no3)CC2)c2ccccc21: 1.3 nM
CS(=O)(=O)N1CC2(CCN(C(=O)Nc3cn(-c4cccc(F)c4)cn3)CC2)c2ccccc21: 1.8 nM
CS(=O)(=O)N1CC2(CCN(C(=O)Nc3cnc4ccccc4c3)CC2)c2ccccc21: 5.4 nM
CS(=O)(=O)N1CC2(CCN(C(=O)Nc3nnc(-c4ccccc4)s3)CC2)c2ccccc21: 3.4 nM

Read the next record carefully.
[in] Kindly state the measured IC50 obtained for `CCS(=O)(=O)N1CC2(CCN(C(=O)Nc3cn(-c4cccc(F)c4)cn3)CC2)c2ccccc21` with Neuropeptide Y receptor type 5 (Homo sapiens, UniProt Q15761).
Sequence (Q15761 whole entry): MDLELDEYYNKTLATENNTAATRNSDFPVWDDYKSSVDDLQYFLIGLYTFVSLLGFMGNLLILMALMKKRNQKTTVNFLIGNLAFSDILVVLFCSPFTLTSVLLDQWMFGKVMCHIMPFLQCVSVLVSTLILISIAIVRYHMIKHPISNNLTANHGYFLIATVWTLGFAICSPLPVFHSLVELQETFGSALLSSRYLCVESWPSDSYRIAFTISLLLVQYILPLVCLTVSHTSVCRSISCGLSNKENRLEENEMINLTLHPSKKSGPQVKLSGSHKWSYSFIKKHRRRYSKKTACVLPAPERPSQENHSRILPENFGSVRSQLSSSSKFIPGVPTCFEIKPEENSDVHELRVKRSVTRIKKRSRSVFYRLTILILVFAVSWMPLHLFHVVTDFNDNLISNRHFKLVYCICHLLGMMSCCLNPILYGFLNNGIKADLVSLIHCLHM
[out] 3 nM
